The values you see were collected from ChEMBL document CHEMBL1144866.

Assay: Inhibitory activity against glycogen phosphorylase, activity expressed as -logKi
Readout kind: -Log Ki

# count of solved cases: 4
*Q* Which measured -Log Ki value corresponds to CCCC(=O)N[C@H]1O[C@H](CO)[C@@H](O)[C@H](O)[C@H]1O ?
*A* 4.027

*Q* Which measured -Log Ki value corresponds to O=C(CCl)N[C@H]1O[C@H](CO)[C@@H](O)[C@H](O)[C@H]1O ?
*A* 4.347

*Q* Which measured -Log Ki value corresponds to O=C(CBr)N[C@H]1O[C@@H](CO)[C@@H](O)[C@H](O)[C@@H]1O ?
*A* 4.357

*Q* Which measured -Log Ki value corresponds to NN1C(=O)N[C@@]2(O[C@@H](CO)[C@@H](O)[C@H](O)[C@@H]2O)C1=O ?
*A* 3.836

A. OCC1OC(CO)C(O)C(O)C1O (stereo unspecified)
B. NCC1OC(CO)C(O)C(O)C1O (stereo in doubt; form 1)
*Q* Endpoint returns the identifier whose -Log Ki is numerically larger, either A or B . Refer to your chosen entry by its label in the reply.
*A* A
